The entries below are paired with their reported inhibition at 0.01 µM.
Target or test system: DNA-PK(h) (Homo sapiens)
Protocol details: Evaluation of inhibitory activity against DNA-PK (HTRF kinase assay, GST-cMyc-p53 substrate)
Type: biochemical
Test conditions: compound concentration 0.01 μM; read-out: EXP_VALUE(% Inhibition) DNA-PK(h) 0.01 μM
Reported endpoint: inhibition at 0.01 µM (%)

[[record]]
given_smiles = "C[C@H](Nc1ncnc2[nH]ccc(=O)c12)c1c(Cl)c2cccc(N3CCN(C4CCN(C)CC4)CC3)c2c(=O)n1-c1ccccc1"
target_or_test_system = "DNA-PK(h) (Homo sapiens)"
experimental_value = 18

[[record]]
given_smiles = "C[C@H](Nc1ncnc2[nH]ccc(=O)c12)c1c(Cl)c2cccc(C#Cc3cccnc3)c2c(=O)n1-c1ccccc1"
target_or_test_system = "DNA-PK(h) (Homo sapiens)"
experimental_value = 80

[[record]]
given_smiles = "C[C@H](Nc1ncnc2[nH]ccc(=O)c12)c1c(Cl)c2cccc(N3CCC(NC(=O)OC(C)(C)C)CC3)c2c(=O)n1-c1ccccc1"
target_or_test_system = "DNA-PK(h) (Homo sapiens)"
experimental_value = 9


====

The entries below are paired with their reported inhibition at 0.1 µM.
Target or test system: PI3K-δ (PI3K(p1108/p857) (h)) (Homo sapiens)
Sequence (O00329 whole entry): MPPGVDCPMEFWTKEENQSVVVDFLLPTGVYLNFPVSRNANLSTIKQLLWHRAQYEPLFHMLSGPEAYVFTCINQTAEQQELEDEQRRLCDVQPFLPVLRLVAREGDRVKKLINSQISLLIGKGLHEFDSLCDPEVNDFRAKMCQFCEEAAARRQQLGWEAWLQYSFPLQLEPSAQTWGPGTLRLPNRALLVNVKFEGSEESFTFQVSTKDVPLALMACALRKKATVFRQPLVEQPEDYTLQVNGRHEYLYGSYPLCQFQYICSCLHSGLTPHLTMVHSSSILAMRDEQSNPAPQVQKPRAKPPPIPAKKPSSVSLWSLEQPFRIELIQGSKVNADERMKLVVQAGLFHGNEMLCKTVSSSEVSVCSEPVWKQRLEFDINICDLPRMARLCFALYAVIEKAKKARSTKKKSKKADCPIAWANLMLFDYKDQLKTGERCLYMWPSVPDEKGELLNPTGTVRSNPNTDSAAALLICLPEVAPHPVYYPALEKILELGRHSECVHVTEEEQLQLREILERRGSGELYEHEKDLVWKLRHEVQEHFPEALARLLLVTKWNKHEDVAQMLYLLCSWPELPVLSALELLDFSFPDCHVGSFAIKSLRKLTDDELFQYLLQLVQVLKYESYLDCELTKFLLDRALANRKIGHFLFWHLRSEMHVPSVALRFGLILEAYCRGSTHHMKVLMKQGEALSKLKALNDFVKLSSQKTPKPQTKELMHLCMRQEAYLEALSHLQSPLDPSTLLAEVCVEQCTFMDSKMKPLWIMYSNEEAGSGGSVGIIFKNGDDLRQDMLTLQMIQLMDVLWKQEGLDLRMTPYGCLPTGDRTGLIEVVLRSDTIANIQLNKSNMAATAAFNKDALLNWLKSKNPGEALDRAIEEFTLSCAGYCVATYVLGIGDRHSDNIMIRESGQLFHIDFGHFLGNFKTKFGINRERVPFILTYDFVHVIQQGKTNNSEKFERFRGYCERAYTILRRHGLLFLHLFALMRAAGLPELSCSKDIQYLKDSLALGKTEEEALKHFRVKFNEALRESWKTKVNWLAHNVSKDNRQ
Sequence (P27986 whole entry partner): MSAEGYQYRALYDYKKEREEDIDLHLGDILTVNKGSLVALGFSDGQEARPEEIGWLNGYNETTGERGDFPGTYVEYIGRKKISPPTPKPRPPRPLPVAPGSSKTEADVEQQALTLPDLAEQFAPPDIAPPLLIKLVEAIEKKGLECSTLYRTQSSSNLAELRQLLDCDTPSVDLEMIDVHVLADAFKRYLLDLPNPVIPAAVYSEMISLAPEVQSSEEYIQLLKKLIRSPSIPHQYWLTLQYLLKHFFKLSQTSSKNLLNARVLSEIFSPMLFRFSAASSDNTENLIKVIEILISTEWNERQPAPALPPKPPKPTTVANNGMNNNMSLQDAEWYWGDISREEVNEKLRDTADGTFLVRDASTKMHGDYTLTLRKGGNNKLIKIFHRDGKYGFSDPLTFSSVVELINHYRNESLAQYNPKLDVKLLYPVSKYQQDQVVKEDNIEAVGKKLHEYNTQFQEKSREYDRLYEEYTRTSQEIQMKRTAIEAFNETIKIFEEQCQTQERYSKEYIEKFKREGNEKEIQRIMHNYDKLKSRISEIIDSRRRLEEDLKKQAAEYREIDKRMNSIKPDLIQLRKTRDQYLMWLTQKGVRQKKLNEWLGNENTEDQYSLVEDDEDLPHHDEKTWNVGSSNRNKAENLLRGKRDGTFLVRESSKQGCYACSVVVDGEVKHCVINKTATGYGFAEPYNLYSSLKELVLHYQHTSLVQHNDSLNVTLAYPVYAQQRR
Protocol details: Evaluation of inhibitory activity against PI3K-δ (HTRF kinase assay)
Type: biochemical
Test conditions: compound concentration 0.1 μM; read-out: EXP_VALUE(% Inhibition) PI3K-δ 0.1 μM
Reported endpoint: inhibition at 0.1 µM (%)

[[record]]
compound = "COc1cccc2c(Cl)c([C@H](C)Nc3ncnc4[nH]ccc(=O)c34)n(-c3ccccc3)c(=O)c12"
reported_endpoint = "inhibition at 0.1 µM"
experimental_value = 84

[[record]]
compound = "C[C@H](Nc1ncnc2[nH]ccc(=O)c12)c1c(Cl)c2cccc(-c3ncon3)c2c(=O)n1-c1ccccc1"
reported_endpoint = "inhibition at 0.1 µM"
experimental_value = 91

[[record]]
compound = "C[C@H](Nc1ncnc2[nH]ccc(=O)c12)c1c(Cl)c2cccc(-c3ccc4c(c3)OCCN4)c2c(=O)n1-c1ccccc1"
reported_endpoint = "inhibition at 0.1 µM"
experimental_value = 95

[[record]]
compound = "COCCOc1cccc2c(Cl)c([C@H](C)Nc3ncnc4[nH]ccc(=O)c34)n(-c3ccccc3)c(=O)c12"
reported_endpoint = "inhibition at 0.1 µM"
experimental_value = 76

[[record]]
compound = "C[C@H](Nc1ncnc2[nH]ccc(=O)c12)c1c(Cl)c2cccc(C#Cc3ccccn3)c2c(=O)n1-c1ccccc1"
reported_endpoint = "inhibition at 0.1 µM"
experimental_value = 60.3

[[record]]
compound = "C[C@H](Nc1ncnc2[nH]ccc(=O)c12)c1c(Cl)c2cccc(-c3ccc(C=O)cc3)c2c(=O)n1-c1ccccc1"
reported_endpoint = "inhibition at 0.1 µM"
experimental_value = 95

[[record]]
compound = "Cc1ccc2c(c1)CN(c1cccc3c(Cl)c([C@H](C)Nc4ncnc5[nH]ccc(=O)c45)n(-c4ccccc4)c(=O)c13)CC2"
reported_endpoint = "inhibition at 0.1 µM"
experimental_value = 55

[[record]]
compound = "C[C@H](Nc1ncnc2[nH]ccc(=O)c12)c1c(Cl)c2cccc(-c3ccc(C4CCN(C)CC4)cc3)c2c(=O)n1-c1ccccc1"
reported_endpoint = "inhibition at 0.1 µM"
experimental_value = 89

[[record]]
compound = "C[C@H](Nc1ncnc2[nH]ccc(=O)c12)c1c(Cl)c2cccc(C#Cc3cccnc3)c2c(=O)n1-c1ccccc1"
reported_endpoint = "inhibition at 0.1 µM"
experimental_value = 114

[[record]]
compound = "C[C@H](Nc1ncnc2[nH]ccc(=O)c12)c1c(Cl)c2cccc(C#Cc3ccc(-c4ccccc4)cc3)c2c(=O)n1-c1ccccc1"
reported_endpoint = "inhibition at 0.1 µM"
experimental_value = 20.4

[[record]]
compound = "Cc1nc2cc(-c3cccc4c(Cl)c([C@H](C)Nc5ncnc6[nH]ccc(=O)c56)n(-c5ccccc5)c(=O)c34)ccc2[nH]1"
reported_endpoint = "inhibition at 0.1 µM"
experimental_value = 97

[[record]]
compound = "C[C@H](Nc1ncnc2[nH]ccc(=O)c12)c1c(Cl)c2cccc(-c3cc(F)ccc3Cl)c2c(=O)n1-c1ccccc1"
reported_endpoint = "inhibition at 0.1 µM"
experimental_value = 91

[[record]]
compound = "C[C@H](Nc1ncnc2[nH]ccc(=O)c12)c1c(Cl)c2cccc(-c3nc4ccccc4o3)c2c(=O)n1-c1ccccc1"
reported_endpoint = "inhibition at 0.1 µM"
experimental_value = 86

[[record]]
compound = "C[C@H](Nc1ncnc2[nH]ccc(=O)c12)c1c(Cl)c2cccc(B(O)O)c2c(=O)n1-c1ccccc1"
reported_endpoint = "inhibition at 0.1 µM"
experimental_value = 94

[[record]]
compound = "CC(C)Oc1ccc(-c2cccc3c(Cl)c([C@H](C)Nc4ncnc5[nH]ccc(=O)c45)n(-c4ccccc4)c(=O)c23)cn1"
reported_endpoint = "inhibition at 0.1 µM"
experimental_value = 102

[[record]]
compound = "C[C@H](Nc1ncnc2[nH]ccc(=O)c12)c1cc2cccc(C#N)c2c(=O)n1-c1ccccc1"
reported_endpoint = "inhibition at 0.1 µM"
experimental_value = 88

[[record]]
compound = "C[C@H](Nc1ncnc2[nH]ccc(=O)c12)c1c(Cl)c2cccc(N3CCN(c4ccccn4)CC3)c2c(=O)n1-c1ccccc1"
reported_endpoint = "inhibition at 0.1 µM"
experimental_value = 79

[[record]]
compound = "C[C@H](Nc1ncnc2[nH]ccc(=O)c12)c1c(Cl)c2cccc(N3CCC4CCCCC4C3)c2c(=O)n1-c1ccccc1 (some centres unmarked)"
reported_endpoint = "inhibition at 0.1 µM"
experimental_value = 42

[[record]]
compound = "C[C@H](Nc1ncnc2[nH]ccc(=O)c12)c1c(Cl)c2cccc(N3CCN(C4CCN(C)CC4)CC3)c2c(=O)n1-c1ccccc1"
reported_endpoint = "inhibition at 0.1 µM"
experimental_value = 61

[[record]]
compound = "C[C@H](Nc1ncnc2[nH]ccc(=O)c12)c1c(Cl)c2cccc(-c3cncnc3)c2c(=O)n1-c1ccccc1"
reported_endpoint = "inhibition at 0.1 µM"
experimental_value = 105

[[record]]
compound = "C[C@H](Nc1ncnc2[nH]ccc(=O)c12)c1c(Cl)c2cccc(-c3ccc(N4CCCC4)cc3)c2c(=O)n1-c1ccccc1"
reported_endpoint = "inhibition at 0.1 µM"
experimental_value = 83

[[record]]
compound = "CC(C)C1CCN(c2cccc3c(Cl)c([C@H](C)Nc4ncnc5[nH]ccc(=O)c45)n(-c4ccccc4)c(=O)c23)CC1"
reported_endpoint = "inhibition at 0.1 µM"
experimental_value = 43

[[record]]
compound = "C[C@H](Nc1ncnc2[nH]ccc(=O)c12)c1c(Cl)c2cccc(-c3ccc4nccnc4c3)c2c(=O)n1-c1ccccc1"
reported_endpoint = "inhibition at 0.1 µM"
experimental_value = 92

[[record]]
compound = "C[C@H](Nc1ncnc2[nH]ccc(=O)c12)c1c(Cl)c2cccc(-c3ccc(C(=O)N(C)C)cc3)c2c(=O)n1-c1ccccc1"
reported_endpoint = "inhibition at 0.1 µM"
experimental_value = 94

[[record]]
compound = "Cc1ccc(-c2cccc3cc([C@H](C)Nc4ncnc5[nH]ccc(=O)c45)n(-c4ccccc4)c(=O)c23)cn1"
reported_endpoint = "inhibition at 0.1 µM"
experimental_value = 101

[[record]]
compound = "C[C@H](Nc1ncnc2[nH]ccc(=O)c12)c1c(Cl)c2cccc(N3CCC(N4CCCCC4)CC3)c2c(=O)n1-c1ccccc1"
reported_endpoint = "inhibition at 0.1 µM"
experimental_value = 70


====

Target or test system: DNA-PK(h) (Homo sapiens, UniProt P78527)
Protocol details: Evaluation of inhibitory activity against DNA-PK (HTRF kinase assay, GST-cMyc-p53 substrate)
Assay type: biochemical
Test conditions: compound concentration 0.01 μM; read-out: EXP_VALUE(% Inhibition) DNA-PK(h) 0.01 μM
Reported endpoint: inhibition at 0.01 µM (%)

[[record]]
compound = "C[C@H](Nc1ncnc2[nH]ccc(=O)c12)c1c(Cl)c2cccc(N3CC4CC=CCC4C3)c2c(=O)n1-c1ccccc1 (stereo partly shown)"
target_or_test_system = "DNA-PK(h) (Homo sapiens, UniProt P78527)"
reported_endpoint = "inhibition at 0.01 µM"
uom = "%"
experimental_value = 12

[[record]]
compound = "COc1ncc(-c2cccc3c(Cl)c([C@H](C)Nc4ncnc5[nH]ccc(=O)c45)n(-c4ccccc4)c(=O)c23)cn1"
target_or_test_system = "DNA-PK(h) (Homo sapiens, UniProt P78527)"
reported_endpoint = "inhibition at 0.01 µM"
uom = "%"
experimental_value = 62

[[record]]
compound = "C[C@H](Nc1ncnc2[nH]ccc(=O)c12)c1c(Cl)c2cccc(-c3ccc(N4CCN(C)CC4)cc3)c2c(=O)n1-c1ccccc1"
target_or_test_system = "DNA-PK(h) (Homo sapiens, UniProt P78527)"
reported_endpoint = "inhibition at 0.01 µM"
uom = "%"
experimental_value = 91

[[record]]
compound = "C[C@H](Nc1ncnc2[nH]ccc(=O)c12)c1c(Cl)c2cccc(C(N)=O)c2c(=O)n1-c1ccccc1"
target_or_test_system = "DNA-PK(h) (Homo sapiens, UniProt P78527)"
reported_endpoint = "inhibition at 0.01 µM"
uom = "%"
experimental_value = 31

[[record]]
compound = "COc1cc(-c2cccc3c(Cl)c([C@H](C)Nc4ncnc5[nH]ccc(=O)c45)n(-c4ccccc4)c(=O)c23)cc(OC)c1C"
target_or_test_system = "DNA-PK(h) (Homo sapiens, UniProt P78527)"
reported_endpoint = "inhibition at 0.01 µM"
uom = "%"
experimental_value = 54

[[record]]
compound = "C[C@H](Nc1ncnc2[nH]ccc(=O)c12)c1c(Cl)c2cccc(-c3cnoc3)c2c(=O)n1-c1ccccc1"
target_or_test_system = "DNA-PK(h) (Homo sapiens, UniProt P78527)"
reported_endpoint = "inhibition at 0.01 µM"
uom = "%"
experimental_value = 15

[[record]]
compound = "Cc1cc(F)ccc1-c1cccc2c(Cl)c([C@H](C)Nc3ncnc4[nH]ccc(=O)c34)n(-c3ccccc3)c(=O)c12"
target_or_test_system = "DNA-PK(h) (Homo sapiens, UniProt P78527)"
reported_endpoint = "inhibition at 0.01 µM"
uom = "%"
experimental_value = 54

[[record]]
compound = "C[C@H](Nc1ncnc2[nH]ccc(=O)c12)c1c(Cl)c2cccc(-c3cccc(C=O)c3)c2c(=O)n1-c1ccccc1"
target_or_test_system = "DNA-PK(h) (Homo sapiens, UniProt P78527)"
reported_endpoint = "inhibition at 0.01 µM"
uom = "%"
experimental_value = 82

[[record]]
compound = "C[C@H](Nc1ncnc2[nH]ccc(=O)c12)c1c(Cl)c2cccc(C#Cc3ccc(N(C)C)cc3)c2c(=O)n1-c1ccccc1"
target_or_test_system = "DNA-PK(h) (Homo sapiens, UniProt P78527)"
reported_endpoint = "inhibition at 0.01 µM"
uom = "%"
experimental_value = 25

[[record]]
compound = "C[C@H](Nc1ncnc2[nH]ccc(=O)c12)c1c(Cl)c2cccc([C@@H](C)O)c2c(=O)n1-c1ccccc1"
target_or_test_system = "DNA-PK(h) (Homo sapiens, UniProt P78527)"
reported_endpoint = "inhibition at 0.01 µM"
uom = "%"
experimental_value = 48

[[record]]
compound = "Cc1cc(-c2cccc3c(Cl)c([C@H](C)Nc4ncnc5[nH]ccc(=O)c45)n(-c4ccccc4)c(=O)c23)ccc1F"
target_or_test_system = "DNA-PK(h) (Homo sapiens, UniProt P78527)"
reported_endpoint = "inhibition at 0.01 µM"
uom = "%"
experimental_value = 59

[[record]]
compound = "C[C@H](Nc1ncnc2[nH]ccc(=O)c12)c1c(Cl)c2cccc(C3OCC(C)(C)CO3)c2c(=O)n1-c1ccccc1"
target_or_test_system = "DNA-PK(h) (Homo sapiens, UniProt P78527)"
reported_endpoint = "inhibition at 0.01 µM"
uom = "%"
experimental_value = -1

[[record]]
compound = "C[C@H](Nc1ncnc2[nH]ccc(=O)c12)c1c(Cl)c2cccc(C(=O)NC3CCC3)c2c(=O)n1-c1ccccc1"
target_or_test_system = "DNA-PK(h) (Homo sapiens, UniProt P78527)"
reported_endpoint = "inhibition at 0.01 µM"
uom = "%"
experimental_value = 8


Reference for the values: patent US20230072683A1
